pIC50: −log10 of the molar value.
// cross-study collection: pIC50 for UniProtKB O60341
Decide by pIC50: equal to or exceeding 5 means 1, less means 0.

Query: pIC50 >= 5 for CN(C)C1CCN(c2nc(-c3ccc(C#N)c(F)c3)c(C3=CC4C=NN(C)C4C=C3)c(=O)n2C)CC1 (centres undefined) ?
Result: 1

Query: Kindly determine if pIC50 recorded for CC(Nc1cc(Cl)ccc1O)C(=O)Nc1cccc(S(=O)(=O)N2CCCCC2)c1 (centres undefined) is above or exactly 5.
Result: 1

Query: Hi team, for `CN(C)S(=O)(=O)c1cccc(NC(=O)CNc2cc(Cl)ccc2O)c1` , is the recorded pIC50 at or above 5?
Result: 0

Query: I'd appreciate it if you could say whether Nc1ccccc1NC(=O)c1ccc(CCCC(=O)Nc2ccc(C3CC3N)cc2)cc1 (centres undefined) has pIC50 at least equal to 5.
Result: 1
